Biological target: human KHK-C (Homo sapiens (Human), UniProt P50053)
Sequence (P50053 whole entry): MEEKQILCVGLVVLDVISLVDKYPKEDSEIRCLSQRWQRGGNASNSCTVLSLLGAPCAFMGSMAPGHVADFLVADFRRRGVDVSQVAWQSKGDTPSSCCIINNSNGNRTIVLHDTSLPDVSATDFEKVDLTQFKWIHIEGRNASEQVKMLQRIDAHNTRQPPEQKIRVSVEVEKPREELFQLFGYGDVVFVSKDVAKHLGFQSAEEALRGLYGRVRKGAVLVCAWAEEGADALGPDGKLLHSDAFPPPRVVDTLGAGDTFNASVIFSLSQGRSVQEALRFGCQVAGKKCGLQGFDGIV
Assay: KHK Biochemical Assay (IC50), ADP-Glo, KHK-C
Details: average of at least two separate assays
quantity_kind: IC50 (nM)

C[C@H]1[C@H](O)CN1c1nc(-c2ccc3c(c2)COC[C@H]3NS(C)(=O)=O)c2c(n1)C(F)(F)CC2 :: 6.1
C[C@@H]1N(c2nc(-c3ccc4c(c3)CCC43COC(=O)N3)c3c(n2)C(F)(F)CC3)C[C@@]1(C)O (stereo partly shown) :: 6.8
C[C@H]1[C@H](O)CN1c1nc([C@H]2CC(NS(C)(=O)=O)c3ccccc3O2)c2c(n1)C(F)(F)CC2 (stereo partly shown) :: 6.1
NC1(c2ccc(-c3nc(N4CC(F)(F)C4CO)nc4c3CCC4(F)F)cc2)CS(=O)(=O)C1 (stereo not shown) :: 6.3

---

Target: KHK-C expressed in NRK-52E cells (Homo sapiens (Human))
Test: KHK-C Cell-based Assay (EC50), NRK CTG, fructose-mediated ATP-depletion
pEC50: −log10 of the molar value.
quantity_kind: pEC50

Worked cases, pEC50 given:
CS(=O)(=O)NC[C@H]1CCN1c1nc2c(c(-c3ccc(C(N)=O)cc3)n1)CCC2 [Example 457] :: < 5.30
C[C@H]1CCN1c1nc2c(c(-c3ccc(-c4nnn[nH]4)cc3)n1)CCC2 [Example 104] :: < 5.30

Next compound, pEC50 to be filled in.
Exam item: Query: pEC50; subject: CO[C@@H]1CN(c2nc3c(c(-c4ccc(C(N)=O)cc4)n2)CCC3)[C@H]1C [Example 235]
Marked response: < 5.30

---

Molecular target: human KHK-C (Homo sapiens (Human))
Assay: KHK Biochemical Assay (IC50), ADP-Glo, KHK-C
Conditions: ADP-Glo; average of at least two separate assays
pIC50: −log10 of the molar value.
quantity_kind: pIC50

Worked cases, pIC50 given:
COc1ccc(-c2nc(N3CC[C@@H]3C)nc3c2CCC3)cc1S(=N)(=O)c1ccc(C#N)cc1Cl (stereo partly shown) :: 7.60
C[C@H]1CCN1c1nc2c(c(-c3ccc(C4(C(N)=O)CC4)cc3)n1)CCC2 :: 6.02
C[C@H]1[C@H](O)CN1c1nc2c(c(-c3ccc(C4(N)CC4)cc3)n1)CCC2 :: 8.43
C[C@H]1[C@@H](F)CN1c1nc2c(c(-c3ccc(C(N)=O)cc3)n1)CCC2 :: 7.76
C[C@H]1CCN1c1nc2c(c(-c3ccc(OC(F)(F)F)c(S(N)(=O)=O)c3)n1)CCC2 :: 6.40
C[C@H]1CCN1c1nc2c(c(-c3ccc4c(c3)C[C@@H]3[C@H](C(N)=O)[C@H]43)n1)CCC2 (relative stereo) :: 6.66
C[C@H]1CCN1c1nc2c(c(-c3ccc4c(c3)C(O)CC4NS(C)(=O)=O)n1)CCC2 (stereo partly shown) :: 8.39
CCOc1cc(-c2nc(N3CC[C@@H]3C)nc3c2CCC3)ccc1C(N)=O :: 7.68

a = C[C@H]1CCN1c1nc2c(c(-c3ccc4[nH]c(=O)[nH]c4c3)n1)CCC2
b = C[C@H]1CCN1c1nc2c(c(-c3ccc(C#N)c(F)c3)n1)CCC2
c = C[C@H]1[C@H](O)CN1c1nc2c(c(-c3ccc(-c4ncc[nH]4)cc3)n1)CCC2
d = C[C@H]1[C@H](O)CN1c1nc2c(c(-c3ccc(CNS(C)(=O)=O)s3)n1)CCC2
Exam item: hey, can you rank those molecules up there by pIC50? biggest number first please Use the labels to give the requested order.
Marked response: d, a, c, b

---

Target: KHK-C expressed in NRK-52E cells (Homo sapiens (Human), UniProt P50053)
Sequence (P50053 whole entry): as above
Assay: KHK-C Cell-based Assay (EC50), NRK CTG, fructose-mediated ATP-depletion
pEC50: −log10 of the molar value.
quantity_kind: pEC50

C[C@H]1[C@H](O)CN1c1nc(-c2ccc3c(c2)CCCNC3=O)c2c(n1)C(F)(F)CC2 :: 7.56

1 = C[C@H]1[C@H](O)CN1c1nc(-c2ccc3c(c2)OCC32CN(CCO)C(=O)N2)c2c(n1)C(F)(F)CC2 (stereo partly shown)
2 = C[C@H]1[C@H](O)CN1c1nc2c(c(-c3ccc4c(c3)CNC4=O)n1)CCC2
Exam item: Identify the entry with the larger pEC50. Options: 1 and 2 Identify your selection by its label.
Marked response: 1
(1: 7.43, 2: 6.44)

---

Biological target: KHK-C expressed in NRK-52E cells (Homo sapiens (Human))
Experiment: KHK-C Cell-based Assay (EC50), NRK CTG, fructose-mediated ATP-depletion
quantity_kind: EC50 (nM)

C[C@H]1CCN1c1nc2c(c(-c3cn(C4CC4)nn3)n1)CCC2 :: 709

A = C[C@H]1CCN1c1nc2c(c(-c3ccc4cnccc4c3)n1)CCC2
B = C[C@H]1[C@H](O)CN1c1nc2c(c(-c3cccc(C4CC4C(=O)O)c3)n1)CCC2 (some centres unmarked)
Exam item: Identify the entry with the larger EC50. Options: A and B Identify your selection by its label.
Marked response: B

---

Target: human KHK-C (Homo sapiens (Human))
Assay: KHK Biochemical Assay (IC50), ADP-Glo, KHK-C
Details: ADP-Glo; average of at least two separate assays
quantity_kind: IC50 (nM)

P = C[C@H]1CCN1c1nc2c(c(-c3ccc(CN4CC(O)C4)cc3)n1)CCC2
Q = C[C@H]1[C@H](O)CN1c1nc2c(c(-c3ccc(C(N)=O)c(F)c3)n1)CCC2
Exam item: Identify the entry with the larger IC50. Options: P and Q Identify your selection by its label.
Marked response: Q
(Q: 69.9 nM, P: 19 nM)

---

Target: UniProt P50053
Experiment: KHK Biochemical Assay (IC50), ADP-Glo, KHK-A
Settings: ADP-Glo; average of at least two separate assays
pIC50: −log10 of the molar value.
quantity_kind: pIC50

Worked cases, pIC50 given:
C[C@H]1CCN1c1nc2c(c(-c3cnc(CN)s3)n1)CCC2 :: 7.75
COc1cc(-c2nc(N3CC[C@@H]3C)nc3c2CCC3)ccc1C(N)=O :: 7.72
C[C@H]1[C@H](O)CN1c1nc2c(c(-c3ccc(C(N)=O)cc3)n1)CC2 :: 6.03
C[C@H]1CCN1c1nc2c(c(-c3ccc(CN4CCOCC4)cc3)n1)CCC2 :: 6.65
COC(=O)N[C@H]1COc2cc(-c3nc(N4C[C@@H](O)[C@@H]4C)nc4c3CCC4(F)F)cc(OC)c21 (single isomer, unassigned) :: 7.25
CC1Cc2nc(N3CC[C@@H]3C)nc(-c3ccccc3)c2C1 (stereo partly drawn) :: 5.53
CNC(=O)c1cccc(-c2nc(N3CC[C@@H]3C)nc3c2CCC3)c1 :: 7.26
C[C@H]1CCN1c1nc(-c2ccccc2)c2ncsc2n1 :: 5.73
C[C@H]1[C@H](O)CN1c1nc2c(c(-c3ccc(C(N)=O)s3)n1)CCC2 :: 7.89
C[C@H]1CCN1c1nc2c(c(-c3cccc(CN4CCCC4)c3)n1)CCC2 :: 7.62

a = C[C@H]1CCN1c1nc(-c2cccc(CNS(C)(=O)=O)c2)c2c(n1)C(F)(F)CC2
b = CCOc1cc(-c2nc(N3CC[C@@H]3C)nc3c2CCC3)ccc1C(N)=O
Exam item: Which value of pIC50 is smaller, the one for a or the one for b ? Identify your selection by its label.
Marked response: b

a = COCCS(=N)(=O)c1cc(-c2nc(N3CC[C@@H]3C)nc3c2CCC3)ccc1OC (stereo partly drawn)
b = C[C@H]1CCN1c1nc2c(c(-c3cc(N)cc(C(N)=O)c3)n1)CCC2
c = C#CC1CCN1c1nc2c(c(-c3ccc(C(N)=O)cc3)n1)CCC2 (stereo not drawn)
d = C[C@H]1CCN1c1nc(-c2ccccc2)c2c(cnn2C)n1
Exam item: With regard to pIC50, arrange the entries in ascending order, please. Use the labels to give the requested order.
Marked response: d, c, b, a
(d: 6.34, c: 6.73, b: 7.33, a: 8.23)

---

Target: KHK-C expressed in NRK-52E cells (Homo sapiens (Human), UniProt P50053)
Experiment: KHK-C Cell-based Assay (EC50), NRK CTG, fructose-mediated ATP-depletion
pEC50: −log10 of the molar value.
quantity_kind: pEC50

C[C@H]1[C@H](O)CN1c1nc(-c2cccc(CNS(C)(=O)=O)c2)c2c(n1)C(F)(F)CC2 :: 7.14
C[C@H]1[C@H](O)CN1c1nc2c(c(-c3cc4cc[nH]c(=O)c4s3)n1)CCC2 :: 6.53
C[C@H]1CCN1c1nc2c(c(-c3ccc4c(c3)C[C@@H]3[C@@H](C(N)=O)[C@H]43)n1)CCC2 (relative stereo) :: 7.00

I = C[C@H]1[C@H](O)CN1c1nc2c(c(-c3ccc(C(N)=O)s3)n1)CCC2
II = C[C@H]1CCN1c1nc(-c2ccc3c(=O)[nH]ccc3c2)c2c(n1)C(F)(F)CC2
Exam item: Identify the entry with the larger pEC50. Options: I and II Identify your selection by its label.
Marked response: II
